# assay_summary: Inhibition of MCT-1 in human A549 cells assessed as potentiation of 3-BP-mediated cytotoxicity by measuring decrease in cell viability incubated for 72 hrs in presence of 3-BP by MTT assay
Please go through the items and note down their IC50.
Be sure to follow the number with its unit.

Ask | Need IC50, item O=C(Cn1nc(C(=O)Nc2cccnc2)c2ccccc21)Nc1ccc(Cl)cc1
Reply | 3320 nM

Ask | Can you look up the measured IC50 of O=C(Cn1nc(C(=O)Nc2ccccn2)c2ccccc21)Nc1cc(Cl)ccc1Cl for me?
Reply | 1890 nM

---

Assignment: determine reported pEC50 for the given compounds.
# assay_summary: Reversal of ABCB1-mediated multidrug resistance in human A2780 ADR cells assessed as increase in doxorubicin-mediated cytotoxicity incubated for 72 hrs in presence of doxorubicin by MTT assay
Friendly reminder that pEC50 comes from taking -log10 of the concentration in mol/L.

Ask | # input compound: O=C(Cn1nc(C(=O)Nc2cccnc2)c2ccccc21)Nc1ccc(Cl)cc1 ; wanted: its pEC50
Reply | 5.33

Ask | Name the recorded pEC50 for COc1cccc(NC(=O)Cn2nc(C(=O)Nc3cccc(OC)c3)c3ccccc32)c1 .
Reply | 5.70

Ask | So what's the measured pEC50 for this one? COc1cccc(NC(=O)c2nn(CC(=O)Nc3ccccc3OC)c3ccccc23)c1
Reply | 5.48

Ask | Returns the measured pEC50 for the input compound. Input: O=C(Cn1nc(C(=O)Nc2ccccn2)c2ccccc21)Nc1cc(Cl)ccc1Cl
Reply | 7.05

---

# assay_summary: Reversal of ABCC1-mediated multidrug resistance in human NCI-H69AR cells assessed as increase in doxorubicin-mediated cytotoxicity incubated for 72 hrs in presence of doxorubicin by MTT assay
Task for the reader: assign each of the following compounds its reported pEC50.
A value of pEC50 is the negative decimal logarithm of a concentration given in moles per litre.

Ask | Item under review: O=C(Cn1nc(C(=O)Nc2cccnc2)c2ccccc21)Nc1ccc(Cl)cc1 . Reported pEC50?
Reply | 5.16

Ask | What pEC50 value was documented for this compound, O=C(Cn1nc(C(=O)Nc2ccccn2)c2ccccc21)Nc1cc(Cl)ccc1Cl ?
Reply | 4.48

Ask | Reported pEC50, compound COc1cccc(NC(=O)Cn2nc(C(=O)Nc3cccc(OC)c3)c3ccccc32)c1 : ____
Reply | 5.07

Ask | // returns reported pEC50 for input COc1cccc(NC(=O)c2nn(CC(=O)Nc3ccccc3OC)c3ccccc23)c1
Reply | 5.26
